tested on: rabbit skeletal myofibrils (fast skeletal myofibrils); assay: Activation of fast skeletal myofibrils (PUMA assay, PK/LDH-coupled ATPase at pCa25); type: biochemical; conditions: AC1.4 determined according to the procedure of Example 39; reported as class symbols
measurement type: Mean AC1.4

1. CC(C)(CNc1ccc(-c2ccc(C(=O)O)c(F)c2)nn1)c1ccc(F)cc1: D (D=>20 uM)
2. CC(C)(CNc1ccc(-c2ccc3c(c2)NC(=O)C3(C)C)nn1)c1ccc(F)cc1: D (D=>20 uM)
3. CC(=O)Nc1n[nH]c2ccc(-c3ccc(NCC(C)(C)c4ccc(F)cc4)nn3)cc12: A (A=<1 uM)
4. CS(=O)(=O)Nc1n[nH]c2ccc(-c3ccc(NCC4(c5ncccc5F)CCC4)nn3)cc12: A (A=<1 uM)
5. CC(C)(CNc1ccc(-c2cccc(C(N)=O)c2)nn1)c1cccc(F)c1: A (A=<1 uM)
6. Nc1cccc(-c2ccc(NCC3(c4ncccc4F)CCC3)nn2)c1: A (A=<1 uM)
7. Cc1cc(-c2cccc(C(N)=O)c2)nnc1NCC(C)(C)c1ccc(F)cc1: B (B=1-10 uM)
8. CC(C)(CNc1ccc(-c2cccc(CO)c2)nn1)c1ccc(F)cc1: B (B=1-10 uM)

# evaluate next
Recorded Mean AC1.4 (compound CC(C)(CNc1ccc(-c2cncnc2)nn1)c1ccccc1Cl ): B (B=1-10 uM)

----------
system: rabbit skeletal myofibrils (fast skeletal myofibrils); assay: Activation of fast skeletal myofibrils (PUMA assay, PK/LDH-coupled ATPase at pCa25); type: biochemical; conditions: median AC1.4 class, procedure of Example 39
measurement type: Mean AC1.4

Solved cases (6 shown):
1. NC(=O)c1cnc(-c2ccc(NC3(c4ccc(F)cc4)CCC3)nn2)s1: B (B=1-10 uM)
2. NC(=O)C1CN(C(=O)c2cnc(-c3ccc(NCC4(c5ncccc5F)CCC4)nn3)s2)CCN1 (stereo not drawn): B (B=1-10 uM)
3. O=C(NCc1cnc(-c2ccc(NCC3(c4ncccc4F)CCC3)nn2)s1)c1ncc[nH]1: A (A=<1 uM)
4. CC(C)(Nc1ccc(-c2ccc(C(N)=O)cc2)nn1)c1ccccc1: C (C=10-20 uM)
5. CCOC(=O)c1cc(-c2ccc(NCC3(c4ncccc4F)CCC3)nn2)on1: D (D=>20 uM)
6. COc1cc(-c2ccc(NC3(c4ccc(F)cc4)CCC3)nn2)ccn1: B (B=1-10 uM)

Notebook: COC(=O)c1c[nH]c(-c2ccc(NCC3(c4ncccc4F)CCC3)nn2)n1 , Mean AC1.4 read as D (D=>20 uM)

// field: Mean AC1.4; key: NC(=O)C(N)c1cccc(-c2ccc(NCC3(c4ncccc4F)CCC3)nn2)c1 (stereo not drawn) ; value = C (C=10-20 uM)

O=c1cc(-c2ccc(NCC3(c4ncccc4F)CCC3)nn2)[nH][nH]1 has a reported Mean AC1.4 of B (B=1-10 uM)

So for Fc1cccnc1C1(CNc2ccc(-c3cnccn3)nn2)CCC1 , the logged Mean AC1.4 turned out to be B (B=1-10 uM)

# Mean AC1.4 of NC(=O)c1cccc(-c2ccc(NC3(c4ccccc4)CCC3)nn2)c1 = B (B=1-10 uM)

Data point: NC(=O)c1cnc(-c2ccc(NCC3(c4ncccc4F)CCC3)nn2)o1 ; Mean AC1.4 = B (B=1-10 uM)

Mean AC1.4 in this record for COc1ccc(C2(Nc3ccc(-c4cc(C(N)=O)ccc4F)nn3)CCC2)nc1 : D (D=>20 uM)

Lab note: O=C(N[C@H]1CCNC1)c1cnc(-c2ccc(NCC3(c4ncccc4F)CCC3)nn2)s1 gave Mean AC1.4 of A (A=<1 uM)

In plain terms, NC(=O)c1ccc(F)c(-c2ccc(NC3(c4cccc(C(N)=O)n4)CCC3)nn2)c1 has a documented Mean AC1.4 of D (D=>20 uM)

What the record says about CC(C)(C)OC(=O)N1CC(F)(F)CC1C(=O)NCc1cnc(-c2ccc(NCC3(c4ncccc4F)CCC3)nn2)s1 (stereo not drawn) : Mean AC1.4 is B (B=1-10 uM)

Mean AC1.4 for Oc1ccc(-c2ccc(NCC3(c4ncccc4F)CCC3)nn2)nc1 is A (A=<1 uM)

Lab note: measured Mean AC1.4 of O=c1[nH]nc(-c2cnc(-c3ccc(NCC4(c5ncccc5F)CCC4)nn3)s2)[nH]1 was A (A=<1 uM)

What the record says about CC(C)(Nc1ccc(-c2ccc(N)nc2)nn1)c1ccccc1 : Mean AC1.4 is B (B=1-10 uM)

Value of Mean AC1.4 reported for the molecule N#Cc1ccc(C2(Nc3ccc(-c4cccc(C(N)=O)c4)nn3)CCC2)cc1 is D (D=>20 uM)

The molecule CC(C)n1[nH]c(=O)c2cc(-c3ccc(NCC4(c5ncccc5F)CCC4)nn3)ccc21 showed Mean AC1.4 equal to C (C=10-20 uM)

meta.source: patent US10076519B2
